- method-notes: CEETOX_H295R_CORTISOL: CeeTox H295R High-throughput Steroidogenesis Assay for Cortisol (AID 2283438);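 further: cortisol secreted into medium quantified by LC-MS/MS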
- reported-conditions: actives raise or lower the signal
Calls of active or inactive are those of the source. How the source made its calls: active means hit-call score of the fitted dose curve at least 0.9, where 1 is the maximum; inactive means score below 0.9.
Possible outcomes: label 1 for active, label 0 for inactive

molecule: Oc1ccc2ccc3cccc4ccc1c2c34
label-value: label 1
--
molecule: Cc1ccc(N)c(N)c1
label-value: label 0
--
molecule: c1ccc(NNc2ccccc2)cc1
label-value: label 0
--
molecule: Nc1ccc(Cc2ccc(N)cc2)cc1
label-value: label 1
--
molecule: Nc1ccc(Cl)cc1N
label-value: label 0
--
molecule: Cn1cc(-c2ccccc2)c(=O)c(-c2cccc(C(F)(F)F)c2)c1
label-value: label 0
--
molecule: CCOc1cccc(C2(N3CCN(c4ccccc4)CC3)CCC(C)CC2)c1 (stereo not drawn)
label-value: label 0
--
molecule: COP(=S)(OC)SCN1C(=O)c2ccccc2C1=O
label-value: label 0
--
molecule: O=C(Oc1ccc(Br)cc1)N1CCN2CCC1CC2
label-value: label 0
--
molecule: Nc1ccc(Oc2ccc(N)cc2)cc1
label-value: label 1
--
molecule: CNC(=O)Oc1cccc2c1OC(C)(C)C2
label-value: label 0
--
molecule: CC(C)(O)c1cnn2c(-c3ccc(F)c(-c4c(F)cccc4C#N)c3)cnc2n1
label-value: label 0
--
molecule: CCCCCCCCCCCCCN1CC(C)OC(C)C1 (stereo not drawn)
label-value: label 0

----------
- Read-out: Monocyte Chemoattractant Protein-1 (MCP1), CCL2 (gene 6347)
- method-notes: BSK_3C_MCP1: BioMAP Diversity Plus: 3C Assay for Monocyte Chemoattractant Protein-1 (MCP1) Biomarker Activity (AID 2283017)
- reported-conditions: primary human endothelial cells (HUVEC); actives raise or lower the signal
Activity calls are given as the source filed them. The calls were made as follows: active = hit-call score of the fitted dose curve at least 0.9, where 1 is the maximum; inactive = score below 0.9.
Labels: active, inactive

molecule: COC(=O)Nc1nc2ccccc2[nH]1
label-value: inactive

molecule: COC(=O)c1ccccc1N
label-value: inactive

molecule: Cc1cc(N=Nc2ccccc2C)ccc1N
label-value: active

molecule: CC(C)(C)C(O)(CCc1ccc(Cl)cc1)Cn1cncn1 (centres undefined)
label-value: inactive

molecule: CCCCCCCCOC(=O)c1ccc(C(=O)OCCCCCCCC)c(C(=O)OCCCCCCCC)c1
label-value: inactive

molecule: Nc1ccc(Cl)cc1N
label-value: inactive

molecule: O=C(Oc1ccc(Br)cc1)N1CCN2CCC1CC2
label-value: inactive

molecule: CCOC(=O)[C@]1(c2ccccc2)Oc2ccccc2[C@@H]1N
label-value: active

molecule: [As]#[In]
label-value: inactive

molecule: CO[C@@H]1[C@H](OC(=O)NC(=O)CCl)CC[C@]2(CO2)[C@H]1[C@@]1(C)O[C@@H]1CC=C(C)C
label-value: inactive

molecule: CCC12COCN1COC2
label-value: inactive

molecule: CN(C)c1ccccc1
label-value: inactive

molecule: CCCCOC(=O)c1ccccc1C(=O)OCc1ccccc1
label-value: inactive

molecule: OCCCl
label-value: inactive

----------
- method-notes: APR_HepG2_MicrotubuleCSK_72hr: Apredica 72-hour HepG2 Assay for Microtubule CSK Stabilty (AID 2282919)
- reported-conditions: HepG2 microtubule cytoskeleton, high-content imaging, actives raise or lower the signal
The source made the active and inactive calls. How the source made its calls: active means hit-call score of the fitted dose curve at least 0.9, where 1 is the maximum; inactive means score below 0.9.
Outcome codes: t = active, f = inactive

compound: O=C(O)C1C2CCC(O2)C1C(=O)O (centres undefined)
label-value: f
//
compound: COc1cc(C=O)cc2c1[C@H](COC(N)=O)[C@]1(OC(C)=O)ON2C[C@H]2[C@@H]1N2C(C)=O
label-value: f
//
compound: O=[N+]([O-])C(Br)(CO)CO
label-value: f
//
compound: CN(C)c1ccc(C(=O)c2ccc(N(C)C)cc2)cc1
label-value: f
//
compound: CCCCOC(=O)c1ccccc1C(=O)OCc1ccccc1
label-value: f
//
compound: Clc1ccc(C(c2ccc(Cl)cc2)C(Cl)Cl)cc1
label-value: t
//
compound: [As]#[In]
label-value: f
//
compound: C[C@]12C=CC3=C4CCC(=O)C=C4CC[C@H]3[C@@H]1CC[C@@H]2O
label-value: f
//
compound: CC(O)CCO (centres undefined)
label-value: f
//
compound: CC(C)(C)C(O)(CCc1ccc(Cl)cc1)Cn1cncn1 (centres undefined)
label-value: t
//
compound: CC(C)COC(=O)c1ccccc1C(=O)OCC(C)C
label-value: f
//
compound: CC(C)(OOC(C)(C)c1ccccc1)c1ccccc1
label-value: f
//
compound: Cn1cc(-c2ccccc2)c(=O)c(-c2cccc(C(F)(F)F)c2)c1
label-value: f
//
compound: Cc1ccc(N)c(N)c1
label-value: f
//
compound: CNC(=O)Oc1cccc2c1OC(C)(C)C2
label-value: f
//
compound: Nc1ccc([N+](=O)[O-])cc1
label-value: f
//
compound: c1ccc(N=Nc2ccccc2)cc1
label-value: f
//
compound: CC(C)(O)c1cnn2c(-c3ccc(F)c(-c4c(F)cccc4C#N)c3)cnc2n1
label-value: t
//
compound: CCN(CC)CCO
label-value: f
//
compound: COC(=O)Nc1nc2ccccc2[nH]1
label-value: f
//
compound: Oc1ccc2ccc3cccc4ccc1c2c34
label-value: t
//
compound: Clc1ccccc1Cl
label-value: f
//
compound: c1ccc(NNc2ccccc2)cc1
label-value: f
//
compound: O=C(Nc1ccccc1)c1ccccc1I
label-value: f
//
compound: Cc1ccc(N)cc1
label-value: f
//
compound: ClC1=C(Cl)[C@]2(Cl)[C@H]3[C@H]([C@@H]4C=C[C@H]3C4)[C@@]1(Cl)C2(Cl)Cl
label-value: f
//
compound: CN(C)c1ccccc1
label-value: f
//
compound: C1=Cc2cccc3cccc1c23
label-value: f
//
compound: [Cl-].[Cl-].[Hg+2]
label-value: t

----------
- Read-out: matrix metalloproteinase-10 (MMP10), MMP10 (gene 4319)
- method-notes: LTEA_HepaRG_MMP10: Life Technologies and Expression Analysis (LTEA) Assay for matrix metalloproteinase-10 (MMP10) using HepaRG (AID 2283517)
- reported-conditions: mRNA level, 48 h; actives raise or lower the signal
Calls of active or inactive are those of the source. Rule for the calls: active = hit-call score of the fitted dose curve at least 0.9, where 1 is the maximum; inactive = score below 0.9.
Labels: true = active, false = inactive

cpd-smiles: CC(C)(C)OOC(C)(C)CCC(C)(C)OOC(C)(C)C
label-value: false
//
cpd-smiles: CCN(CC)N=O
label-value: false
//
cpd-smiles: N#CC(Br)(Br)C(N)=O
label-value: false
//
cpd-smiles: CCOC(=O)[C@]1(c2ccccc2)Oc2ccccc2[C@@H]1N
label-value: true
//
cpd-smiles: CO[C@@H]1[C@H](OC(=O)NC(=O)CCl)CC[C@]2(CO2)[C@H]1[C@@]1(C)O[C@@H]1CC=C(C)C
label-value: false
//
cpd-smiles: ClCCOCCCl
label-value: false
//
cpd-smiles: c1ccc2c(c1)oc1ccccc12
label-value: false

----------
- Read-out: Collagen III, COL3A1 (gene 1281)
- method-notes: BSK_hDFCGF_CollagenIII: BioMAP Diversity Plus: hDFCGF Assay for Collagen III Biomarker Activity (AID 2283056)
- reported-conditions: primary human foreskin fibroblasts; actives raise or lower the signal
Calls of active or inactive are those of the source. How the source made its calls: active means hit-call score of the fitted dose curve at least 0.9, where 1 is the maximum; inactive means score below 0.9.
Labels: active, inactive

molecule: Oc1ccc2ccc3cccc4ccc1c2c34
label-value: active
//
molecule: N#CC(Br)(Br)C(N)=O
label-value: inactive
//
molecule: CC(C)N(Cc1ccccc1)C(=O)C(C)(C)C
label-value: inactive
//
molecule: CN(C)c1ccccc1
label-value: inactive
//
molecule: ClC1=C(Cl)C2(Cl)C3C(Cl)C=CC3C1(Cl)C2(Cl)Cl (stereo not drawn)
label-value: active
//
molecule: CC(C)(O)c1cnn2c(-c3ccc(F)c(-c4c(F)cccc4C#N)c3)cnc2n1
label-value: active
//
molecule: ClC1=C(Cl)[C@]2(Cl)[C@H]3[C@H]([C@@H]4C=C[C@H]3C4)[C@@]1(Cl)C2(Cl)Cl
label-value: active
//
molecule: Cc1ccc(N)cc1
label-value: inactive
//
molecule: [O-][Cl+]O
label-value: inactive
//
molecule: Cc1cc(N=Nc2ccccc2C)ccc1N
label-value: active
//
molecule: CCC(C)c1ccc(O)cc1 (stereo not drawn)
label-value: inactive
//
molecule: c1ccc(N=Nc2ccccc2)cc1
label-value: inactive
//
molecule: Clc1ccc(C(c2ccc(Cl)cc2)C(Cl)Cl)cc1
label-value: active
//
molecule: O=[N+]([O-])C(Br)(CO)CO
label-value: active
//
molecule: Cc1ccc(N)c(N)c1
label-value: active
//
molecule: Nc1ccc(Oc2ccc(N)cc2)cc1
label-value: inactive
//
molecule: COP(=S)(OC)SCN1C(=O)c2ccccc2C1=O
label-value: inactive
//
molecule: O=C(Nc1ccccc1)c1ccccc1I
label-value: inactive
//
molecule: CC(C)(OOC(C)(C)c1ccccc1)c1ccccc1
label-value: active
//
molecule: [As]#[In]
label-value: inactive
//
molecule: CCN(CC)CCO
label-value: inactive
//
molecule: OCCOCCO
label-value: inactive
//
molecule: CC(C)(C)OOC(C)(C)CCC(C)(C)OOC(C)(C)C
label-value: inactive
//
molecule: CCCCCOC(=O)c1ccccc1C(=O)OCCCCC
label-value: active
//
molecule: CC(O)CCO (stereo not drawn)
label-value: inactive
//
molecule: O=C(N[C@H](c1ccccc1)[C@@H]1CN2CCC1CC2)c1c(Cl)ccc(C(F)(F)F)c1Cl
label-value: inactive
//
molecule: CCOc1cccc(C2(N3CCN(c4ccccc4)CC3)CCC(C)CC2)c1 (stereo not drawn)
label-value: inactive
//
molecule: CN(C)[C@@H]1C(=O)C(C(N)=O)=C(O)[C@@]2(O)C(=O)C3=C(O)c4c(O)cccc4[C@@](C)(O)[C@H]3C[C@@H]12
label-value: inactive
//
molecule: CS(=O)(=O)NC(=O)c1cc(Oc2ccc(C(F)(F)F)cc2Cl)ccc1[N+](=O)[O-]
label-value: inactive
//
molecule: ClCCOCCCl
label-value: inactive
//
molecule: CC(C)COC(=O)c1ccccc1C(=O)OCC(C)C
label-value: active
//
molecule: O=C1CCCO1
label-value: inactive
//
molecule: CO[C@@H]1[C@H](OC(=O)NC(=O)CCl)CC[C@]2(CO2)[C@H]1[C@@]1(C)O[C@@H]1CC=C(C)C
label-value: active
//
molecule: [Cl-].[Cl-].[Hg+2]
label-value: active
//
molecule: Nc1cc(Cl)cc(C(=O)O)c1Cl
label-value: inactive
//
molecule: Nc1ccc(Cl)cc1N
label-value: inactive
//
molecule: C[C@]12C=CC3=C4CCC(=O)C=C4CC[C@H]3[C@@H]1CC[C@@H]2O
label-value: inactive
//
molecule: CC(C)(C)C(O)(CCc1ccc(Cl)cc1)Cn1cncn1 (stereo not drawn)
label-value: inactive
